Provenance of the data: ChEMBL document CHEMBL4007475

targetUnderTest: Cholinesterase (Homo sapiens)
Sequence (P06276 whole entry): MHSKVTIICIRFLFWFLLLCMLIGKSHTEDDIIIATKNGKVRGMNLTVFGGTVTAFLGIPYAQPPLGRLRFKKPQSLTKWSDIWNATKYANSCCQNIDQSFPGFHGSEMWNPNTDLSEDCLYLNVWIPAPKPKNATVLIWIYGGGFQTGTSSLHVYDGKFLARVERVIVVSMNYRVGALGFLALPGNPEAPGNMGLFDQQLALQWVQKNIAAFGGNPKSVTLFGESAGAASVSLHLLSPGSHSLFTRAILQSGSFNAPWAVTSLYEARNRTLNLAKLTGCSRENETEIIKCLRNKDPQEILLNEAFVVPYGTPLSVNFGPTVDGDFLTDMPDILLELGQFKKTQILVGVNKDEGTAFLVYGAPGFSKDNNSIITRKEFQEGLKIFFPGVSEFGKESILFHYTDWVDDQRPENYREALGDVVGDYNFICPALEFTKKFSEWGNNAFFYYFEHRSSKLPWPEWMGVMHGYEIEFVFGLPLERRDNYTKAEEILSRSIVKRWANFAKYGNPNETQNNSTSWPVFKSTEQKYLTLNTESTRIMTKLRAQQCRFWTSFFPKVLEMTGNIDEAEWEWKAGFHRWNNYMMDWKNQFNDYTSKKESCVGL
testProtocol: Inhibition of butyrylcholinesterase (unknown origin) using acetylthiocholine as substrate preincubated for 20 mins followed by substrate addition by Ellmans method
Entries annotated with measured pIC50
pIC50 is defined as minus the log10 of a concentration measured in mol/L.

>>> numericvalue("Cc1cc2nc3c(nc2cc1C)C1(C(C#N)=C(N)N2CCCNC2=C1[N+](=O)[O-])c1ccccc1-3 (configuration not stated)")
5.02
>>> numericvalue("CC1(C)CNC2=C([N+](=O)[O-])C3(C(C#N)=C(N)N2C1)c1ccccc1-c1nc2ccccc2nc13 (configuration not stated)")
5.01
>>> numericvalue("Cc1cc2nc3c(nc2cc1C)C1(C(C#N)=C(N)N(Cc2ccccc2)C(NCc2ccccc2)=C1[N+](=O)[O-])c1ccccc1-3 (configuration not stated)")
5.05
>>> numericvalue("N#CC1=C(N)N2CCCNC2=C([N+](=O)[O-])C12c1ccccc1-c1nc3ccc([N+](=O)[O-])cc3nc12 (configuration not stated)")
5.01
>>> numericvalue("N#CC1=C(N)N(Cc2ccccc2)C(NCc2ccccc2)=C([N+](=O)[O-])C12c1ccccc1-c1nc3ccc([N+](=O)[O-])cc3nc12 (configuration not stated)")
5.04
>>> numericvalue("CC1(C)CNC2=C([N+](=O)[O-])C3(C(C#N)=C(N)N2C1)c1ccccc1-c1nc2ccc([N+](=O)[O-])cc2nc13 (configuration not stated)")
5.00
>>> numericvalue("Cc1cc2nc3c(nc2cc1C)C1(C(C#N)=C(N)N2CC(C)(C)CNC2=C1[N+](=O)[O-])c1ccccc1-3 (configuration not stated)")
5.06
>>> numericvalue("N#CC1=C(N)N2CCCNC2=C([N+](=O)[O-])C12c1ccccc1-c1nc3ccccc3nc12 (configuration not stated)")
4.99
>>> numericvalue("Cc1cc2nc3c(nc2cc1C)C1(C(C#N)=C(N)N2CCNC2=C1[N+](=O)[O-])c1ccccc1-3 (configuration not stated)")
5.14
>>> numericvalue("N#CC1=C(N)N2CCNC2=C([N+](=O)[O-])C12c1ccccc1-c1nc3ccc([N+](=O)[O-])cc3nc12 (configuration not stated)")
5.02

Lab note: N#CC1=C(N)N2CCNC2=C([N+](=O)[O-])C12c1ccccc1-c1nc3ccccc3nc12 (configuration not stated) gave pIC50 of 5.08

Lab note: N#CC1=C(N)N(Cc2ccccc2)C(NCc2ccccc2)=C([N+](=O)[O-])C12c1ccccc1-c1nc3ccccc3nc12 (configuration not stated) gave pIC50 of 5.07
